Read-out: Thyroid Hormone Responsive (THRSP), THRSP (gene 7069)
Assay: LTEA_HepaRG_THRSP: Life Technologies and Expression Analysis (LTEA) Assay for Thyroid Hormone Responsive (THRSP) using HepaRG (AID 2283536)
Details: mRNA level, 48 h; actives raise or lower the signal
Active and inactive are the calls of the source. How the source made its calls: active means hit-call score of the fitted dose curve at least 0.9, where 1 is the maximum; inactive means score below 0.9.
Tick one outcome: TRUE = active, FALSE = inactive

-- ask Called result for "CCc1cccc(CC)c1N"
-- reply FALSE

====

Assay: ATG_PBREM_CIS: Attagene CIS-FACTORIAL HepG2 Assay for human Phenobarbital-responsive Enhancer Module (PBREM) (AID 2282955)
Conditions: HepG2 PBREM cis-reporter, Attagene multiplexed transcription; actives raise or lower the signal
Active and inactive are the calls of the source. The calls were made as follows: active = hit-call score of the fitted dose curve at least 0.9, where 1 is the maximum; inactive = score below 0.9.
Tick one outcome: active, inactive

A selection of reference data follows.
| Compound | Assigned Class |
| --- | --- |
| CC(=O)c1ccccc1 | inactive |
| O=S(=O)(O)c1ccc(N=Nc2c(O)ccc3cc(S(=O)(=O)O)ccc23)cc1 | inactive |
| C[Si](C)(C)C(F)(F)C(F)(F)C(F)(F)F | inactive |
| NCC(F)(F)C(F)(F)C(F)(F)C(F)(F)F | inactive |
| O=C1CN(N=Cc2ccc([N+](=O)[O-])o2)C(=O)N1 | inactive |
| NC(=O)N(O)[C@@H]1COc2cc(OCc3ccccc3)ccc21 | inactive |
| CCCOc1ccc(S(=O)(=O)N2CCN(CC)CC2)cc1-c1nc2c(CC)n(Cc3ccccn3)nc2c(=O)[nH]1 | active |
| FC(F)C(F)(F)COCC1CO1 (centres undefined) | inactive |
| COS(C)(=O)=O | inactive |
| O=S1(=O)CCCO1 | inactive |

-- ask Called result for "CCCCN1C(=O)[C@@H]([C@H](O)C2CCCCC2)NC(=O)C12CCN(Cc1ccc(Oc3ccc(C(=O)O)cc3)cc1)CC2"
-- reply inactive

-- ask Called result for "Cc1nccn1-c1ccc(Sc2cccc(C3(C(N)=O)CCOCC3)c2)cc1"
-- reply active

-- ask Called result for "Cc1ccc(S(=O)(=O)NC(=O)NN2CCCCCC2)cc1"
-- reply inactive

-- ask Called result for "OC(O)(C(F)C(O)(O)C(F)(F)F)C(F)(F)F"
-- reply inactive

-- ask Called result for "c1ccc2c(c1)-c1cccc3c1c-2cc1ccccc13"
-- reply inactive

-- ask Called result for "FC(F)(F)COC(OCC(F)(F)F)OCC(F)(F)F"
-- reply inactive

====

Read-out: Pyruvate Dehydrogenase Kinase 4 (PDK4), PDK4 (gene 5166)
Assay: LTEA_HepaRG_PDK4: Life Technologies and Expression Analysis (LTEA) Assay for Pyruvate Dehydrogenase Kinase 4 (PDK4) using HepaRG (AID 2283525)
Details: mRNA level, 48 h; actives raise or lower the signal
Calls of active or inactive are those of the source. Rule for the calls: active = hit-call score of the fitted dose curve at least 0.9, where 1 is the maximum; inactive = score below 0.9.
Measurement Label: AC50

For orientation, consider the following solved cases.
| Compound | AC50 |
| --- | --- |
| CCc1cccc(CC)c1N | inactive |
| CC(C)C(=O)Nc1ccc([N+](=O)[O-])c(C(F)(F)F)c1 | 9.61 µM (active) |
| NNC(=O)c1ccncc1 | inactive |
| CC(C)CCCCCCOC(=O)C1CCCCC1C(=O)OCCCCCCC(C)C (stereo not drawn) | inactive |
| CCCCOC(=O)c1ccccc1 | inactive |
| OC(CCl)CCl | inactive |
| O=C1CN(N=Cc2ccc([N+](=O)[O-])o2)C(=O)N1 | 57.6 µM (active) |

Note: attention shifts to another entry.
-- ask Give reported AC50 value for "CCc1ccc(O)c(C(C)(C)C)c1"
-- reply inactive
